Cited source for all entries: patent US12331038B2

# maps each entry to its pIC50
# Study target: KHK-C (Homo sapiens (Human), UniProt P50053)
# Sequence (P50053 whole entry): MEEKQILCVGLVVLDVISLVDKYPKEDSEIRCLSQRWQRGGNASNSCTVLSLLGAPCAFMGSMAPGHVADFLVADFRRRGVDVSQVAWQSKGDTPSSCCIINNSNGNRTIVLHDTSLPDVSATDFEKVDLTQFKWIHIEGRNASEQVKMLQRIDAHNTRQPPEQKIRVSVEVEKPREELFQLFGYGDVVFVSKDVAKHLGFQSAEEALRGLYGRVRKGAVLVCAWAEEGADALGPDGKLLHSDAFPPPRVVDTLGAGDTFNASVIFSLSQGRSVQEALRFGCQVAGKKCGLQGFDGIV
# Assay comment: Inhibitory activity against KHK-C kinase in vitro (ADP-Glo), Experimental Protocol II
# Type: biochemical
# Condition info: 1 nM KHK-C, 100 μM ATP, 200 μM D-Fructose, control drug top concentration 1000 nM
pIC50: −log10 of the molar value.
Measurement label: pIC50

> print(dat)
                                   compound                              study.target  numeric.value
1  C[C@H]1N(c2nc(N3C[C@@H]4[C@@H](CC(=O)O)[C@@H]4C3)c3c(n2)C(F)(F)CCC3)CC1(F)F (single isomer, unassigned)  KHK-C (Homo sapiens (Human), UniProt P50053)           8.82
2  CC1C(F)CN1c1nc(N2C[C@@H]3[C@@H](CC(=O)O)[C@@H]3C2)c2c(n1)C(F)(F)CCC2 (stereo partly shown)  KHK-C (Homo sapiens (Human), UniProt P50053)           9.14
3  CC1N(c2nc(N3C[C@@H]4[C@@H](CC(=O)O)[C@@H]4C3)c3c(n2)C(F)(F)CCC3)CC1(F)F (stereo partly shown)  KHK-C (Homo sapiens (Human), UniProt P50053)           8.66
4  CC1C(F)CN1c1nc(N2C[C@@H]3[C@@H](CC(=O)O)[C@@H]3C2)c2c(n1)C(F)(F)CC2 (stereo partly shown)  KHK-C (Homo sapiens (Human), UniProt P50053)           9.05
